All figures here come from ChEMBL document CHEMBL3994585.

test system: B-cell; test: Cytotoxicity against Balb/c mouse B cells assessed as reduction in cell proliferation at 100 uM after 48 hrs by MTT assay; type: cell-based
experimentalReadout: Activity

For orientation, consider the following solved cases.
CC(=O)OCC(C)C1CCc2c(C)cc(OC(C)=O)c(C)c2C1O (configuration not stated); Non-Toxic
CCOC(=O)[C@H](C)c1ccc2c(C)cc(OC)c(C)c2c1; Toxic
COc1cc(C)c2ccc([C@@H](C)C(=O)O)cc2c1C; Non-Toxic
Cc1cc(O)c(C)c2c1CCC1C2OC(O)C1C (configuration not stated); Toxic

Ask: Can you share its Activity? I mean this compound: Cc1cc(O)c(C)c2c1CC[C@@H]([C@@H](C)C(=O)Nc1nccc(C)c1[N+](=O)[O-])C2
Result: Non-Toxic

Ask: Can you share its Activity? I mean this compound: Cc1cc(O)c(C)c2c1CC[C@@H]([C@@H](C)C(=O)N1CCOCC1)C2
Result: Non-Toxic

Ask: Can you share its Activity? I mean this compound: CC(=O)Oc1cc(C)c2c(c1C)C1OC(OC(C)=O)C(C)C1CC2 (configuration not stated)
Result: Toxic
